Sourced from ChEMBL document CHEMBL1145427

# System: Spleen
# assay-remarks: Biodistribution in ICR mouse spleen at 5 to 10 uCi, iv after 1 hr
# Type: ADME, organism-based
# condition-details: in vivo
parameter: Drug uptake (% ID/g)

Consider the worked cases shown below.
>  <smiles-string>
CNc1ccc(-c2cn(-c3ccc([125I])cc3)nn2)cc1

>  <target>
Spleen

>  <reading-unit>
% ID/g

>  <Drug uptake>
1.24

$$$$
>  <smiles-string>
CN(C)c1ccc(-c2cn(-c3ccc([125I])cc3)nn2)cc1

>  <target>
Spleen

>  <reading-unit>
% ID/g

>  <Drug uptake>
0.89

$$$$

1 = CN(C)c1ccc(-c2cn(-c3ccc(OCC[18F])cc3)nn2)cc1
2 = CN(C)c1ccc(-c2cn(-c3ccc(OCCC[18F])cc3)nn2)cc1
Task: For the pair 1 and 2 , which entry has the numerically smaller recorded Drug uptake? State the label of the item chosen.
Output: 2

* * *

# Tested on: Kidney
# assay-remarks: Biodistribution in ICR mouse kidney at 5 to 10 uCi, iv after 2 mins
# Type: ADME, organism-based
# condition-details: in vivo
parameter: Drug uptake (% ID/g)

Completed entries (count: 2):
>  <smiles-string>
CN(C)c1ccc(-c2cn(-c3ccc(OCC[18F])cc3)nn2)cc1

>  <reported-result>
6.94

$$$$
>  <smiles-string>
CN(C)c1ccc(-c2cn(-c3ccc([125I])cc3)nn2)cc1

>  <reported-result>
11.5

$$$$

1 = CNc1ccc(-c2cn(-c3ccc([125I])cc3)nn2)cc1
2 = CN(C)c1ccc(-c2cn(-c3ccc(OCCC[18F])cc3)nn2)cc1
Task: Lowest Drug uptake? choose 1 or 2 // return label of chosen record
Output: 2

* * *

# Tested on: Lung
# assay-remarks: Biodistribution in ICR mouse lung at 5 to 10 uCi, iv after 30 mins
# Format: ADME, organism-based
# condition-details: in vivo, 0.5 h
parameter: Drug uptake (% ID/g)

>  <smiles-string>
CN(C)c1ccc(-c2cn(-c3ccc(OCCC[18F])cc3)nn2)cc1

>  <target>
Lung

>  <reading-unit>
% ID/g

>  <reported-result>
2.4

$$$$
>  <smiles-string>
CN(C)c1ccc(-c2cn(-c3ccc(OCC[18F])cc3)nn2)cc1

>  <target>
Lung

>  <reading-unit>
% ID/g

>  <reported-result>
2.72

$$$$

A = CNc1ccc(-c2cn(-c3ccc([125I])cc3)nn2)cc1
B = CN(C)c1ccc(-c2cn(-c3ccc([125I])cc3)nn2)cc1
Task: Could you determine which record has the numerically smaller Drug uptake? Candidates: A and B Write down the label of the entry you select.
Output: B

* * *

# System: Lung
# assay-remarks: Biodistribution in ICR mouse lung at 5 to 10 uCi, iv after 1 hr
# Assay type: ADME, organism-based
# condition-details: in vivo
parameter: Drug uptake (% ID/g)

Here are 2 molecules together with their reported answers.
>  <smiles-string>
CNc1ccc(-c2cn(-c3ccc([125I])cc3)nn2)cc1

>  <Drug uptake (% ID/g)>
2.82

$$$$
>  <smiles-string>
CN(C)c1ccc(-c2cn(-c3ccc([125I])cc3)nn2)cc1

>  <Drug uptake (% ID/g)>
1.66

$$$$

P = CN(C)c1ccc(-c2cn(-c3ccc(OCC[18F])cc3)nn2)cc1
Q = CN(C)c1ccc(-c2cn(-c3ccc(OCCC[18F])cc3)nn2)cc1
Task: Which value of Drug uptake is numerically greater: that of P or that of Q ? // caller expects the label of the chosen entry
Output: P
(P: 2.03 % ID/g, Q: 0.88 % ID/g)
